APPLIED_CONDITIONS: 250 K; 101.33 kPa; Crystal; relaxation calorimetry
Numbers after ± are expanded uncertainties.
EXPERIMENTAL_ENDPOINT: molar entropy
Could you give the number and then its unit, please?

Example entries begin here.
MOLECULE	molar entropy
O[C@H]1[C@H](O)[C@@H](O)[C@H](O)[C@@H](O)[C@H]1O [cis-1,2,3,5-trans-4,6-cyclohexanehexol]	163.02 ± 15 J/K/mol
OC[C@@H](O)C(O)[C@H](O)CO [D-arabitol]	167.08 ± 15 J/K/mol
OC[C@@H](O)[C@H](O)[C@@H](O)CO [xylitol]	164.69 ± 15 J/K/mol
OC[C@@H](O)[C@@H](O)[C@H](O)[C@H](O)CO [D-mannitol]	189.63 ± 17 J/K/mol
OC[C@H](O)C(O)[C@@H](O)CO [L-(-)-arabitol]	168.59 ± 15 J/K/mol

API: the following record is the query input.
Prompt line: Given OC[C@@H](O)[C@@H](O)CO [meso-1,2,3,4-butanetetrol] , state its recorded molar entropy.
Response line: 138.64 ± 13 J/K/mol

---

PROCEDURE_SUMMARY: molar heat capacity at constant pressure
APPLIED_CONDITIONS: 238.15 K; 101.33 kPa; Crystal; Small sample (50 mg) DSC
As shown below, each of these molecules has a reported molar heat capacity at constant pressure value.
Quick note: give the figure in J/K/mol, leave out the unit.

Worked cases, answers included:
MOLECULE	MEASUREMENT_UNIT	molar heat capacity at constant pressure
O[C@H]1[C@H](O)[C@@H](O)[C@H](O)[C@@H](O)[C@H]1O [cis-1,2,3,5-trans-4,6-cyclohexanehexol]	J/K/mol	172.36
OC[C@@H](O)[C@@H](O)[C@H](O)[C@H](O)CO	J/K/mol	186
OC[C@@H](O)[C@@H](O)CO	J/K/mol	133.18

Prompt line: What value of molar heat capacity at constant pressure has been recorded for this entry: OC[C@@H](O)[C@H](O)[C@@H](O)CO
Response line: 166.88

Prompt line: Would you mind doing OC[C@@H](O)C(O)[C@H](O)CO as well?
Response line: 160.39

Prompt line: Here is the next molecule: OC[C@H](O)C(O)[C@@H](O)CO [L-(-)-arabitol]
Response line: 164.86

---

PROCEDURE_SUMMARY: molar heat capacity at constant pressure
APPLIED_CONDITIONS: 189.15 K; 101.33 kPa; Crystal; Small sample (50 mg) DSC
EXPERIMENTAL_ENDPOINT: molar heat capacity at constant pressure (J/K/mol)
Field: numeric (J/K/mol). Do not append units.

Consider the reported molar heat capacity at constant pressure for these compounds:
COMPOUND	molar heat capacity at constant pressure / J/K/mol
OC[C@@H](O)[C@@H](O)[C@H](O)[C@H](O)CO	144.52
O[C@H]1[C@H](O)[C@@H](O)[C@H](O)[C@@H](O)[C@H]1O [cis-1,2,3,5-trans-4,6-cyclohexanehexol]	133.01

Prompt line: Tell me the measured molar heat capacity at constant pressure of OC[C@@H](O)[C@H](O)[C@@H](O)CO , please.
Response line: 130.13

Prompt line: Please give the result for OC[C@@H](O)[C@@H](O)CO too.
Response line: 105.65

Prompt line: Same thing, different compound: OC[C@H](O)C(O)[C@@H](O)CO [L-(-)-arabitol]
Response line: 130.57

Prompt line: Follow-up entry: OC[C@@H](O)C(O)[C@H](O)CO
Response line: 123.07
